target: human JAK1 (a.a. 837-1142) (Homo sapiens, UniProt P23458); construct: human JAK1 (a.a. 837-1142); His tag (N); made in house; host or cells: insect cells (baculovirus); assay: In vitro JAK kinase assay (HTRF, phosphorylation of a biotinylated peptide), JAK1; format: biochemical; conditions: read-out: JAK1 IC50
Sequence (P23458 849-1154): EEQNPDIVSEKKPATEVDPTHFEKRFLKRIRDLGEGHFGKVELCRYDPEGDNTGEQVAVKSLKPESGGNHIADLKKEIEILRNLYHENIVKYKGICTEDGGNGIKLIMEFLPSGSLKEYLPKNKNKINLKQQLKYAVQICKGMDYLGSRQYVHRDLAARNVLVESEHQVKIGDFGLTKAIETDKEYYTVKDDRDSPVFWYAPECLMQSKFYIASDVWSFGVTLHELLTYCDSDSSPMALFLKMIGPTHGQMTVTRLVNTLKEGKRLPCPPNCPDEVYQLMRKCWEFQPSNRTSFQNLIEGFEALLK
pIC50: −log10 of the molar value.
READOUT_KIND: pIC50

a = O=C(Cc1c[nH]cn1)Nc1ccc2cc1CCc1cccc(c1)Nc1ncc(Cl)c(n1)N2 [Example C33, bis(trifluoroacetate)]
b = Cc1ccc(C(=O)N2Cc3cccc(c3)Nc3ncc(Cl)c(n3)Nc3cccc2c3)cc1 [Example C24]
*Q* Of the pair a and b , name the member with the lesser recorded pIC50. # answer = label of selected item
*A* b
(b: 7.02, a: 7.77)

---

biological target: Recombinant Human Anaplastic Lymphoma Kinase (Homo sapiens, UniProt Q9UM73); construct: purchased Invitrogen, Carlsbad, Calif; experiment: ALK HTRF kinase assay; type: biochemical; conditions: compound at a concentration of 500 nM or 1 mM (not specified); cells shown as percentage
Sequence (Q9UM73 19-1620): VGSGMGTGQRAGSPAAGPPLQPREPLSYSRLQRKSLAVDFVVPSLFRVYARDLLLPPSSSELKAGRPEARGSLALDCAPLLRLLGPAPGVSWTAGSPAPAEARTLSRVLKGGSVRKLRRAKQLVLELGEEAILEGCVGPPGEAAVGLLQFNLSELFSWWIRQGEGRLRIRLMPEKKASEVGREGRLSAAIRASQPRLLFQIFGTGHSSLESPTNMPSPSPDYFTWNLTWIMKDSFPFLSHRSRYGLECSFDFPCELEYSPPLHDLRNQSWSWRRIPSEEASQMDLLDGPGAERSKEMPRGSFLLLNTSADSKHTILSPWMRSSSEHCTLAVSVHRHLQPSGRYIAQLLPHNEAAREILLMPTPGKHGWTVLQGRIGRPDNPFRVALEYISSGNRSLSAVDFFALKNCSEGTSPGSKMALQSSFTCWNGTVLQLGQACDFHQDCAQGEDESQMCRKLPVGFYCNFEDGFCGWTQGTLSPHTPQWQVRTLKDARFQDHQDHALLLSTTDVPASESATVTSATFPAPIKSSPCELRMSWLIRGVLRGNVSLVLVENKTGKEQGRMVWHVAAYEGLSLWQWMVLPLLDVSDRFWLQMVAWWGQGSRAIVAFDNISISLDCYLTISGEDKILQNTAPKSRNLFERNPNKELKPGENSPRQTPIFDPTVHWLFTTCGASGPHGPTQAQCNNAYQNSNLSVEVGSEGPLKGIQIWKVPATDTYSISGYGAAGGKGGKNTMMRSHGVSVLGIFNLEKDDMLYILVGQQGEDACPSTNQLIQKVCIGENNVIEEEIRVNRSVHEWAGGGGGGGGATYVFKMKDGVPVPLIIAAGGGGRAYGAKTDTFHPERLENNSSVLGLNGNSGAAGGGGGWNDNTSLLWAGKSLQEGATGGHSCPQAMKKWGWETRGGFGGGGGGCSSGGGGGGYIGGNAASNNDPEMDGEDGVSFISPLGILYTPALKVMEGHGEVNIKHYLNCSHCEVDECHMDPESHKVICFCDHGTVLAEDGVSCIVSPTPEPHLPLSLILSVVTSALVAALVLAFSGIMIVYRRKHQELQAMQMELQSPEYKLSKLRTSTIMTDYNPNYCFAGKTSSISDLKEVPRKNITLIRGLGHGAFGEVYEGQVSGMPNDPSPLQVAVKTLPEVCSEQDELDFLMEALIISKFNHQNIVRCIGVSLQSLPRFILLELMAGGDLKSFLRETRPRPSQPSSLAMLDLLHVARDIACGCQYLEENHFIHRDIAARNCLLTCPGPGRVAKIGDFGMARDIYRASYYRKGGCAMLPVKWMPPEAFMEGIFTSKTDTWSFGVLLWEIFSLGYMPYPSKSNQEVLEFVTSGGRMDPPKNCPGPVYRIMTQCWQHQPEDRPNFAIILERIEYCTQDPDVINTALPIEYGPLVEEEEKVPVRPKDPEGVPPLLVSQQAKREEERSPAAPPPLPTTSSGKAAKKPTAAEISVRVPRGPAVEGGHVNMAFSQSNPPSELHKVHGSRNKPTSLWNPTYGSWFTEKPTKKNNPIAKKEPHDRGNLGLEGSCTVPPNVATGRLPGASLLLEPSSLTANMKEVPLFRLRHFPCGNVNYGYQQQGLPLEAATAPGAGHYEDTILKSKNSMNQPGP
Where a name gives a salt, the structure may show the parent alone.
READOUT_KIND: ALK % of inhibition at a concentration of 500 nM or 1 mM (%)

*Q* Value lookup for ALK % of inhibition at a concentration of 500 nM or 1 mM; key = Cn1ccc2c(NC(=O)Nc3ccc4cc3CCc3cccc(c3)Nc3ncc(Cl)c(n3)N4)cccc21 [Example B125, trifluoroacetate]
*A* 34

*Q* Tell me the measured ALK % of inhibition at a concentration of 500 nM or 1 mM of O=S(=O)(Nc1ccc2cc1CCc1cccc(c1)Nc1ncc(Cl)c(n1)N2)c1ccccc1C(F)(F)F [Example B164, trifluoroacetate] , please.
*A* 4.6

*Q* For the molecule shown here, CC(C)(C)OC(=O)N1CC[C@H](NC(=O)Nc2ccc3cc2CCc2cccc(c2)Nc2ncc(Cl)c(n2)N3)C1 [Example B166] , give the reported ALK % of inhibition at a concentration of 500 nM or 1 mM.
*A* 15

*Q* Would you mind telling me what ALK % of inhibition at a concentration of 500 nM or 1 mM value was observed for O=C(Nc1ccc2cc1CCc1cccc(c1)Nc1ncc(Cl)c(n1)N2)N[C@@H]1CCN(C(=O)c2ccccc2)C1 [Example B176, trifluoroacetate] ?
*A* 19

I = O=C(Nc1ccc2cc1CCc1cncc(c1)Nc1ncc(Cl)c(n1)N2)N[C@H]1CCN(C(=O)c2ccn[nH]2)C1 [Example B268, bis(trifluoroacetate)]
II = NC1CCN(c2ccnc(Nc3ccc4cc3CCc3cccc(c3)Nc3ncc(Cl)c(n3)N4)n2)CC1 [Example B281, tris(trifluoroacetate)]
*Q* Compare reported ALK % of inhibition at a concentration of 500 nM or 1 mM values for I and II . Which is lower? Reply briefly: the label of your chosen item.
*A* I
(I: 16%, II: 24%)

---

target: human JAK1 (a.a. 837-1142) (Homo sapiens, UniProt P23458); construct: human JAK1 (a.a. 837-1142); His tag (N); made in house; host or cells: insect cells (baculovirus); assay: In vitro JAK kinase assay (HTRF, phosphorylation of a biotinylated peptide), JAK1; format: biochemical; details: Table B1; read-out: JAK1 IC50
Structures can show the parent of a compound that is named as a salt.
READOUT_KIND: IC50 (nM)

*Q* Consider the molecule CC(C)(C)OC(=O)N1CC[C@H](NCc2ccc3cc2CCc2cccc(c2)Nc2ncc(Cl)c(n2)N3)C1 [Example B220, bis(trifluoroacetate)] and give its measured IC50.
*A* 7.4

1 = CC(=O)Nc1ccc(C(=O)Nc2ccc3cc2CCc2cccc(c2)Nc2ncc(Cl)c(n2)N3)cc1 [Example B45, trifluoroacetate]
2 = CC(C)(C)NC(=O)Nc1ccc2cc1CCc1cccc(c1)Nc1ncc(Cl)c(n1)N2 [Example B87, trifluoroacetate]
3 = N#Cc1ccc(N2CCN(C(=O)Nc3ccc4cc3CCc3cncc(c3)Nc3ncc(Cl)c(n3)N4)CC2)nc1 [Example B310, tris(trifluoroacetate)]
4 = O=C(NCc1ccncc1)Nc1ccc2cc1CCc1cccc(c1)Nc1ncc(Cl)c(n1)N2 [Example B246]
*Q* rank_up(items): orders items by reported IC50 in ascending numerical order. Record the ranking as a list of labels in the requested order.
*A* 1, 2, 4, 3
(1: 0.88 nM, 2: 5.3 nM, 4: 12 nM, 3: 24 nM)

The origin of these recorded values is patent US8871753B2.
